test system: Foxtail, (green) (Setaria viridis); experiment: Herbicidal post-emergence test, Foxtail (green); format: in vivo; details: 1200 g/ha, scale of 0-100, 0 no activity, 100 total control, about two or four weeks after application
READOUT KIND: Herbicidal Activity FOX (post-emergence)

State the recorded Herbicidal Activity FOX (post-emergence) for this entry: C#CCN1C(=O)COc2cc(F)c(N3C(=O)C(=O)N(CC(F)(F)F)C3=O)cc21 [Compound 24]
0/0

State the recorded Herbicidal Activity FOX (post-emergence) for this entry: CCOC(=O)COc1cc(N2C(=O)C(=O)N(C)C2=O)c(F)cc1Cl [Compound 17]
0/0

State the recorded Herbicidal Activity FOX (post-emergence) for this entry: CCCN1C(=O)C(=O)N(c2cc(F)c(F)cc2F)C1=O [Compound C1, reference compound]
0/0
